System: Pseudomonas aeruginosa
measurementDescription: Compound was tested in vitro for antibacterial activity against Pseudomonas aeruginosa
Assay type: functional
compounds and their reported MIC
# value in µg/mL; strip the unit string

Study these solved cases before continuing.
>  <compound>
CC(O)[C@H]1C(=O)N2C(C(=O)[O-])=C(SCc3cc[n+](C)cc3)[C@H](C)C12 (some centres undefined)

>  <unit>
µg/mL

>  <reading>
0.5

$$$$
>  <compound>
C[C@@H](O)[C@H]1C(=O)N2C(C(=O)O)=C(SCCN=CN)C[C@H]12 [IMIPENEM ANHYDROUS]

>  <unit>
µg/mL

>  <reading>
0.25

$$$$

Item CC(O)[C@H]1C(=O)N2C(C(=O)[O-])=C(SCc3n(C)cc[n+]3C)CC12 (some centres undefined) has what recorded MIC?
2

Reported MIC, compound CC(O)[C@H]1C(=O)N2C(C(=O)O)=C(SCc3ccncc3)CC12 (some centres undefined) : ____
32

====

System: Pseudomonas aeruginosa
measurementDescription: Compound was tested in vitro for antibacterial activity against Pseudomonas aeruginosa
Assay type: functional
measuredQuantity: MIC
Give the value; after it, write the unit.

Quick one: MIC for CC(O)[C@H]1C(=O)N2C(C(=O)[O-])=C(SCc3cc[n+](C)cc3)CC12 (stereo not given in full) ?
0.5 µg/mL

Find the recorded MIC belonging to CC(O)[C@H]1C(=O)N2C(C(=O)O)=C(SCc3nccn3C)[C@H](C)C12 (stereo not given in full) and report it.
16 µg/mL

# input compound: Cc1c(CSC2=C(C(=O)[O-])N3C(=O)[C@H](C(C)O)C3C2)ccc[n+]1C (stereo not given in full) ; wanted: its MIC
0.5 µg/mL

Consider the compound CC(O)[C@H]1C(=O)N2C(C(=O)[O-])=C(SCc3n(C)cc[n+]3C)[C@H](C)C12 (stereo not given in full) and give its measured MIC.
1 µg/mL

For the compound Cc1c(CSC2=C(C(=O)[O-])N3C(=O)[C@H](C(C)O)C3[C@H]2C)ccc[n+]1C (stereo not given in full) , what MIC is on record?
2 µg/mL
